# Test system: RAW-Dual (murine macrophage reporter line)
# PROTOCOL_SUMMARY: IRF reporter (Lucia luciferase) activity fold change vs agonist alone; higher = enhanced IRF activity
# MEASUREMENT_CONTEXT: modulator concentration 10 µM; agonist: LPS 0.1 ug/mL

>  <COMPOUND>
Oc1nc[nH]n1

>  <ASSAY_TARGET>
RAW-Dual (murine macrophage reporter line)

>  <IRF reporter>
0.923

$$$$
>  <COMPOUND>
O=S(=O)(C=Cc1ccccc1)NCc1ccccc1

>  <ASSAY_TARGET>
RAW-Dual (murine macrophage reporter line)

>  <IRF reporter>
1.28

$$$$
>  <COMPOUND>
CC[C@@]1(O)C(=O)OCc2c1cc1n(c2=O)Cc2cc3c(CN(C)C)c(O)ccc3nc2-1 [Prestw-1196]

>  <ASSAY_TARGET>
RAW-Dual (murine macrophage reporter line)

>  <IRF reporter>
3.79

$$$$
>  <COMPOUND>
CCOC(=O)c1ccc(-c2ccc(C=C(C#N)C(=O)Nc3ccc(F)cc3)o2)cc1

>  <ASSAY_TARGET>
RAW-Dual (murine macrophage reporter line)

>  <IRF reporter>
1.29

$$$$
>  <COMPOUND>
COc1ccc(CNS(=O)(=O)c2ccc3ccccc3c2)cc1

>  <ASSAY_TARGET>
RAW-Dual (murine macrophage reporter line)

>  <IRF reporter>
1.49

$$$$
>  <COMPOUND>
COc1c(Cl)ccc(Cl)c1C(=O)NCc1ccccc1

>  <ASSAY_TARGET>
RAW-Dual (murine macrophage reporter line)

>  <IRF reporter>
1.25

$$$$
>  <COMPOUND>
NS(=O)(=O)c1cc(Cl)c(Cl)c(S(N)(=O)=O)c1 [Prestw-809]

>  <ASSAY_TARGET>
RAW-Dual (murine macrophage reporter line)

>  <IRF reporter>
0.92

$$$$
>  <COMPOUND>
Cc1ccc(C(=O)N(CCCN)[C@@H](c2nc3cc(Cl)ccc3c(=O)n2Cc2ccccc2)C(C)C)cc1

>  <ASSAY_TARGET>
RAW-Dual (murine macrophage reporter line)

>  <IRF reporter>
0.52

$$$$
>  <COMPOUND>
COCCCNC(=O)CSc1ccc(Cl)cc1

>  <ASSAY_TARGET>
RAW-Dual (murine macrophage reporter line)

>  <IRF reporter>
1.12

$$$$
>  <COMPOUND>
COc1ccc(NCN2C(=O)c3ccccc3C2=O)c(OC)c1

>  <ASSAY_TARGET>
RAW-Dual (murine macrophage reporter line)

>  <IRF reporter>
1.42

$$$$
>  <COMPOUND>
N#Cc1ccc(C(=O)Nc2nc(-c3cccs3)c(C(=O)C(F)(F)F)s2)cc1

>  <ASSAY_TARGET>
RAW-Dual (murine macrophage reporter line)

>  <IRF reporter>
1.36

$$$$
>  <COMPOUND>
Cc1cc(OC2CCN(C(=O)c3csc(C)n3)CC2)nc(C)n1

>  <ASSAY_TARGET>
RAW-Dual (murine macrophage reporter line)

>  <IRF reporter>
1.23

$$$$
>  <COMPOUND>
O=C(CSC1CCCCC1)Nc1ccc(Br)cc1

>  <ASSAY_TARGET>
RAW-Dual (murine macrophage reporter line)

>  <IRF reporter>
1.06

$$$$
>  <COMPOUND>
COCC(C)(CNS(=O)(=O)c1ccccc1Br)OC (stereo not drawn)

>  <ASSAY_TARGET>
RAW-Dual (murine macrophage reporter line)

>  <IRF reporter>
1.07

$$$$
>  <COMPOUND>
Cl.OC(CCN1CCCC1)(c1ccccc1)C1CCCCC1 (stereo not drawn)

>  <ASSAY_TARGET>
RAW-Dual (murine macrophage reporter line)

>  <IRF reporter>
1.07

$$$$
>  <COMPOUND>
Cn1nc(-c2ccc(F)cc2)cc1C(=O)NCC1(CO)CC1

>  <ASSAY_TARGET>
RAW-Dual (murine macrophage reporter line)

>  <IRF reporter>
1.09

$$$$
>  <COMPOUND>
CCOc1cc(C=C2SC(=S)N(CCS(=O)(=O)O)C2=O)ccc1O

>  <ASSAY_TARGET>
RAW-Dual (murine macrophage reporter line)

>  <IRF reporter>
1.28

$$$$
>  <COMPOUND>
OCCN(CCO)c1nc(N2CCCCC2)c2nc(N(CCO)CCO)nc(N3CCCCC3)c2n1

>  <ASSAY_TARGET>
RAW-Dual (murine macrophage reporter line)

>  <IRF reporter>
1.18

$$$$
>  <COMPOUND>
O=C(c1cc2ccccc2o1)N1CC(N2C(=O)CNC2=O)C1

>  <ASSAY_TARGET>
RAW-Dual (murine macrophage reporter line)

>  <IRF reporter>
1.12

$$$$
>  <COMPOUND>
CC(C)Sc1ccc(CC(=O)NC2CCN(c3cc4c(nn3)CCCC4)CC2)cc1

>  <ASSAY_TARGET>
RAW-Dual (murine macrophage reporter line)

>  <IRF reporter>
1.26

$$$$
>  <COMPOUND>
CC(O)Cn1cnc2c1c(=O)n(C)c(=O)n2C (stereo not drawn)

>  <ASSAY_TARGET>
RAW-Dual (murine macrophage reporter line)

>  <IRF reporter>
0.972

$$$$
>  <COMPOUND>
c1ccc(OCCOc2ccc(Nc3ccnc4cc5ccccc5cc34)cc2)cc1

>  <ASSAY_TARGET>
RAW-Dual (murine macrophage reporter line)

>  <IRF reporter>
1.48

$$$$
>  <COMPOUND>
Cl.O=C1c2cccc3c2C(CCC3)CN1C1CN2CCC1CC2 (stereo not drawn)

>  <ASSAY_TARGET>
RAW-Dual (murine macrophage reporter line)

>  <IRF reporter>
0.718

$$$$

Measured values drawn from the supplement of paper PMC10646978 for this set.
